study.target: CHRM5 (M5 muscarinic receptor) (Homo sapiens, UniProt P08912)
Sequence (P08912 whole entry): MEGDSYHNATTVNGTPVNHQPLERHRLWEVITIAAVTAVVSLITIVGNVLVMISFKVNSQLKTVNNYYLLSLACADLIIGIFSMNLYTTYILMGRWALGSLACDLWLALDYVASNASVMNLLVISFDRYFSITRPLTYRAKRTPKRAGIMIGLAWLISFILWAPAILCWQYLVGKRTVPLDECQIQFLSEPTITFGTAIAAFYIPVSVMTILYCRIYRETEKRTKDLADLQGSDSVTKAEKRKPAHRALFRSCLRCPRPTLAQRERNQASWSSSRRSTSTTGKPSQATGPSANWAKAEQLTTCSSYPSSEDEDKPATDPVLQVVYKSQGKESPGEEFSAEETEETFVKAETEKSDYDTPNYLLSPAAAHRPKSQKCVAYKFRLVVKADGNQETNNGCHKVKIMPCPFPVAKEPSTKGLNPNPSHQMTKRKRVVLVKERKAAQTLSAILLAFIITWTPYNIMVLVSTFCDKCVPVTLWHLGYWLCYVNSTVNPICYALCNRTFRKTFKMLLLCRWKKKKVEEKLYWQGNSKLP
test.summary: BRET-based G protein dissociation assay
Format: cell-based
cond: agonist mode; read-out: EC50
pEC50: −log10 of the molar value.
outcome.measure: pEC50

INSERT INTO results (compound, result) VALUES
  ('CCN(CC)C(=O)[C@@H]1C=C2c3cccc4[nH]cc(c34)C[C@H]2N(C)C1 [LSD, lysergic acid diethylamide, reference compound]', '< 5.00');

* * *

study.target: ADRa2A (α2A adrenergic receptor) (Homo sapiens)
Sequence (P08913 whole entry): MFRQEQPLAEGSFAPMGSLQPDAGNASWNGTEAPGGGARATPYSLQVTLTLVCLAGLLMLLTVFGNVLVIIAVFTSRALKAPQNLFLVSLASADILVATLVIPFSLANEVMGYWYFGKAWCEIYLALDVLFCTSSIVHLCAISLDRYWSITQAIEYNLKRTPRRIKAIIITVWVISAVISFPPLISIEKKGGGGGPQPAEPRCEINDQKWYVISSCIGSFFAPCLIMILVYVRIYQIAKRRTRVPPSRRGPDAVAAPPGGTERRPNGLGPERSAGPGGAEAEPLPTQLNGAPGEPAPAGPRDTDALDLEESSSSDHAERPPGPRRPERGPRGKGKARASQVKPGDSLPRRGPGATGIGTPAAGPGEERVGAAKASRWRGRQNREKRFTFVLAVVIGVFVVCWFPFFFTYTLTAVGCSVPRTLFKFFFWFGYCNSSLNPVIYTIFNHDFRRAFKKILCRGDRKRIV
test.summary: BRET-based G protein dissociation assay
outcome.measure: EC50 (nM)

INSERT INTO assay_data (smiles_notation, study_target, outcome_measure, uom, quantitative_readout) VALUES
  ('CCN(CC)C(=O)[C@@H]1C=C2c3cccc4[nH]c(Br)c(c34)C[C@H]2N(C)C1', 'ADRa2A (α2A adrenergic receptor) (Homo sapiens)', 'EC50', 'nM', 282);
